Task for the reader: assign each of the following molecules its reported pIC50.
- Tested on: influenza A/FM/1/47(H1N1)
- method: microbe, parasite or virus in culture
- Assay type: cell-based, influenza A virus
- condition.description: Influenza A virus, H1N1, MDCK
Numbers only, as −log10 of the molar value.

molecule | system.tested | pIC50
COC(=O)c1ccc(O[C@@H]2O[C@H](COC(C)=O)[C@H](OC(C)=O)[C@H](OC(C)=O)[C@H]2OC(C)=O)c(F)c1 | influenza A/FM/1/47(H1N1) | 3.88
COC(=O)c1ccc(N)c(O[C@@H]2O[C@H](COC(C)=O)[C@@H](OC(C)=O)[C@H](OC(C)=O)[C@H]2OC(C)=O)c1 | influenza A/FM/1/47(H1N1) | 3.92
COC(=O)c1c(F)cccc1O[C@@H]1O[C@H](COC(C)=O)[C@H](OC(C)=O)[C@H](OC(C)=O)[C@H]1OC(C)=O | influenza A/FM/1/47(H1N1) | 4.18

The molecule listed as CCOC(=O)C1=C[C@@H](OC(CC)CC)[C@H](NC(C)=O)[C@@H](N)C1 [Oseltamivir, reference compound] has a reported pIC50 of 4.24
